Kindly state pEC50 for each of the entries shown.
Target: GluN2B glutamate receptors (Homo sapiens (Human), UniProt Q05586+Q13224)
Sequence (Q13224 27-1484, other chains not shown): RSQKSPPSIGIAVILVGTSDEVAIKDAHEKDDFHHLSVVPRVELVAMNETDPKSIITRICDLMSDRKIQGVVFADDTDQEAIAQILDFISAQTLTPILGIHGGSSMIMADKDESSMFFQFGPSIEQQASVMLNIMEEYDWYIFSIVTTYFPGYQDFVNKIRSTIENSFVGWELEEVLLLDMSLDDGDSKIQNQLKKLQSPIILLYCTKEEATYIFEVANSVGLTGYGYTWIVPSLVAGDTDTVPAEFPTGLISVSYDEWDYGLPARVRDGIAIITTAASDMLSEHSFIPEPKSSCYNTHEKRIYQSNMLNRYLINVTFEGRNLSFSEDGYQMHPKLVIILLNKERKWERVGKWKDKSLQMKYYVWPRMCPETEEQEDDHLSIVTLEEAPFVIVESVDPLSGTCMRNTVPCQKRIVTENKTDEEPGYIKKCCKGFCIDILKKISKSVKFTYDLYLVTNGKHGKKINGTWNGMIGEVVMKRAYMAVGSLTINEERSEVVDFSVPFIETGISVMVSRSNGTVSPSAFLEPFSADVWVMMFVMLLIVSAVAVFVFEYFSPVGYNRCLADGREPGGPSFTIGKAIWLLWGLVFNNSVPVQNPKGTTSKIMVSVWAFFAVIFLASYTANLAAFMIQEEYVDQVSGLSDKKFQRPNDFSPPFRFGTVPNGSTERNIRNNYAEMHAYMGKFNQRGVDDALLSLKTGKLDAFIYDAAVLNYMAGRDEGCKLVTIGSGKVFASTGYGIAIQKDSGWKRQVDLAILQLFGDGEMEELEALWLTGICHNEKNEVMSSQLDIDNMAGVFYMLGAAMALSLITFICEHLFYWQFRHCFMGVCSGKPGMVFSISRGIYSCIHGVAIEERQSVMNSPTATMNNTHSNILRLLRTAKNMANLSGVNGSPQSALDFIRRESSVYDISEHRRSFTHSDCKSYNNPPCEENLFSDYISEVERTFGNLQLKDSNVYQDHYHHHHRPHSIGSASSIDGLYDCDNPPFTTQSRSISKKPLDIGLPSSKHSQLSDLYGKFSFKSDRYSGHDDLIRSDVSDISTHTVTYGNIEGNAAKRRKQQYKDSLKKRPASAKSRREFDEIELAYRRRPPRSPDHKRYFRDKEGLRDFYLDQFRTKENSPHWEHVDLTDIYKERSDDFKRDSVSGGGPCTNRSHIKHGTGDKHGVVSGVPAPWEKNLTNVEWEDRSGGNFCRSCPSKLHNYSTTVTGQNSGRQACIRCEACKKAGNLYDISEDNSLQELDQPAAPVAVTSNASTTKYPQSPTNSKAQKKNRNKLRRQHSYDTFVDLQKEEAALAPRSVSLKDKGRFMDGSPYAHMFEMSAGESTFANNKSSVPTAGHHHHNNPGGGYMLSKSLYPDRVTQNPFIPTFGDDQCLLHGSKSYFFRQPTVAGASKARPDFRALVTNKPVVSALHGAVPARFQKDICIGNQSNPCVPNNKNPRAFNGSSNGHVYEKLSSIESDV
Assay: Whole-cell patch clamp of mammalian cells (Ionworks Barracuda), positive allosteric modulation, GluN2B
Type: cell-based
Numbers only, as −log10 of the molar value.

Past entries and their recorded results:
[
  {
    "compound": "CC(C)[C@H](O)CCC[C@@H](C)[C@H]1CC[C@H]2[C@@H]3CC[C@H]4C[C@](O)(C(F)(F)F)CC[C@]4(C)[C@H]3CC[C@]12C",
    "measurement_label": "pEC50",
    "data_value": 7.11
  },
  {
    "compound": "CC[C@]1(O)CC[C@@]2(C)C(=CC[C@H]3[C@@H]4CC[C@H]([C@H](C)CC[C@@H](O)c5cccnc5)[C@@]4(C)CC[C@@H]32)C1",
    "measurement_label": "pEC50",
    "data_value": 6.04
  },
  {
    "compound": "C[C@H](CCCO)[C@H]1CC[C@H]2[C@@H]3CC[C@H]4C[C@](O)(C(F)(F)F)CC[C@]4(C)[C@H]3CC[C@]12C",
    "measurement_label": "pEC50",
    "data_value": 6.12
  },
  {
    "compound": "CC[C@]1(O)CC[C@@]2(C)C(=CC[C@H]3[C@@H]4CC[C@H]([C@H](C)CC[C@@H](O)c5ccc(C#N)cc5)[C@@]4(C)CC[C@@H]32)C1 (single isomer, unassigned)",
    "measurement_label": "pEC50",
    "data_value": 6.33
  },
  {
    "compound": "CC[C@]1(O)CC[C@@]2(C)C(=CC[C@H]3[C@@H]4CC[C@H]([C@H](C)CC[C@H](O)c5ccc(C#N)cc5)[C@@]4(C)CC[C@@H]32)C1 (single isomer, unassigned)",
    "measurement_label": "pEC50",
    "data_value": 6.44
  }
]

For every record below, what is its pEC50?
1. C[C@H](CCC(O)c1ccccc1)[C@H]1CC[C@H]2[C@@H]3CC=C4C[C@@](C)(O)CC[C@]4(C)[C@H]3CC[C@]12C (stereo partly shown)
2. C[C@H](CCC1(O)CCC(F)(F)CC1)[C@H]1CC[C@H]2[C@@H]3CC=C4C[C@](O)(C(F)(F)F)CC[C@]4(C)[C@H]3CC[C@]12C
3. C[C@H](CCC1(O)CCOC1)[C@H]1CC[C@H]2[C@@H]3CC[C@H]4C[C@](O)(C(F)(F)F)CC[C@]4(C)[C@H]3CC[C@]12C (stereo partly shown)
4. CC[C@@H](O)CC[C@@H](C)[C@H]1CC[C@H]2[C@@H]3CC[C@H]4C[C@](O)(CC)CC[C@@H]4[C@H]3CC[C@]12C

Reply |
1. 6.03
2. 7.32
3. 6.95
4. 7.15

###

Target: GluN2B glutamate receptors (Homo sapiens (Human), UniProt Q05586+Q13224)
Assay: Whole-cell patch clamp of mammalian cells (Ionworks Barracuda), positive allosteric modulation, GluN2B
Format: cell-based
Details: % potentiation of current elicited with EC20 L-glutamate and 30 μM glycine; read-out: Avg Emax 2B (%)
// boundary case: Emax equal to 300% maps to rule not met; strictly smaller maps to rule met

Here's what some known entries look like.
[
  {
    "compound": "CC[C@]1(O)CC[C@H]2C(=CC[C@@H]3[C@@H]2CC[C@]2(C)[C@@H]([C@H](C)CCC[C@H](C)O)CC[C@@H]32)C1",
    "label_class": "rule not met"
  },
  {
    "compound": "C[C@H](O)CC[C@@H](C)[C@H]1CC[C@H]2[C@@H]3CC=C4C[C@](O)(C(F)(F)F)CC[C@]4(C)[C@H]3CC[C@]12C",
    "label_class": "rule not met"
  },
  {
    "compound": "CC[C@]1(O)CC[C@@]2(C)[C@@H](CC[C@@H]3[C@@H]2CC[C@]2(C)[C@@H]([C@H](C)CC[C@@H](O)c4cccnc4)CC[C@@H]32)C1",
    "label_class": "rule met"
  },
  {
    "compound": "CO[C@H]1CC[C@@](O)(CC[C@@H](C)[C@H]2CC[C@H]3[C@@H]4CC[C@H]5C[C@](O)(C(F)(F)F)CC[C@]5(C)[C@H]4CC[C@]23C)CC1",
    "label_class": "rule met"
  },
  {
    "compound": "C[C@H](CC[C@@H](O)C(F)(F)F)[C@H]1CC[C@H]2[C@@H]3CC[C@H]4C[C@](O)(C(F)(F)F)CC[C@]4(C)[C@H]3CC[C@]12C",
    "label_class": "rule not met"
  },
  {
    "compound": "C[C@H](CCC(O)c1ccccc1)[C@H]1CC[C@H]2[C@@H]3CC=C4C[C@@](C)(O)CC[C@]4(C)[C@H]3CC[C@]12C (some centres unmarked)",
    "label_class": "rule met"
  }
]

Ask | For CC[C@]1(O)CC[C@@]2(C)[C@@H](CC[C@@H]3[C@@H]2CC[C@]2(C)[C@@H]([C@H](C)CC[C@H](O)c4cccnc4)CC[C@@H]32)C1 , is the recorded Emax below the cut-off of 300%?
Reply | rule met

Ask | Bench note: check whether C[C@H](CCC(O)C1CCOCC1)[C@H]1CC[C@H]2[C@@H]3CC[C@H]4C[C@](O)(C(F)(F)F)CC[C@]4(C)[C@H]3CC[C@]12C (some centres unmarked) shows Emax below 300%
Reply | rule met

Ask | For this compound, is Emax lower than 300%? CC[C@]1(O)CC[C@H]2[C@@H](CC[C@@H]3[C@@H]2CC[C@]2(C)[C@@H]([C@H](C)CC[C@@H](O)C(C)C)CC[C@@H]32)C1
Reply | rule not met

Ask | Find out if reported Emax for CC(C)[C@H](O)CC[C@@H](C)[C@H]1CC[C@H]2[C@@H]3CC[C@H]4C[C@](O)(C(F)(F)F)CC[C@]4(C)[C@H]3CC[C@]12C is less than 300%
Reply | rule not met

Ask | State whether 300% exceeds Emax recorded for CC[C@]1(O)CC[C@H]2C(=CC[C@@H]3[C@@H]2CC[C@]2(C)[C@@H]([C@H](C)CCCC4(O)CCC(F)(F)CC4)CC[C@@H]32)C1 .
Reply | rule met

Ask | Record C[C@H](O)CCC[C@@H](C)[C@H]1CC[C@H]2[C@@H]3CC[C@H]4C[C@](O)(C(F)(F)F)CC[C@]4(C)[C@H]3CC[C@]12C : is its Emax strictly below 300%?
Reply | rule met

Ask | Is the reported Emax for CC[C@]1(O)CC[C@@]2(C)[C@@H](CC[C@@H]3[C@@H]2CC[C@]2(C)[C@@H]([C@H](C)CC[C@@H](O)c4ccccc4)CC[C@@H]32)C1 strictly below 300%?
Reply | rule met

Ask | hey, is Emax for C[C@H](CCC(O)C1CCC1)[C@H]1CC[C@H]2[C@@H]3CC[C@H]4C[C@](O)(C(F)(F)F)CC[C@]4(C)[C@H]3CC[C@]12C (some centres unmarked) lower than 300% or not?
Reply | rule not met

Ask | Emax strictly < 300% for this compound? CC[C@]1(O)CC[C@@]2(C)C(=CC[C@H]3[C@@H]4CC[C@H]([C@H](C)CC[C@@H](O)c5cccc(F)c5)[C@@]4(C)CC[C@@H]32)C1 (single isomer, unassigned)
Reply | rule not met

###

Biological target: GlunN1/GluN2A glutamate receptors (Homo sapiens (Human), UniProt Q05586+Q12879)
Sequence (Q12879 23-1464, other chains not shown): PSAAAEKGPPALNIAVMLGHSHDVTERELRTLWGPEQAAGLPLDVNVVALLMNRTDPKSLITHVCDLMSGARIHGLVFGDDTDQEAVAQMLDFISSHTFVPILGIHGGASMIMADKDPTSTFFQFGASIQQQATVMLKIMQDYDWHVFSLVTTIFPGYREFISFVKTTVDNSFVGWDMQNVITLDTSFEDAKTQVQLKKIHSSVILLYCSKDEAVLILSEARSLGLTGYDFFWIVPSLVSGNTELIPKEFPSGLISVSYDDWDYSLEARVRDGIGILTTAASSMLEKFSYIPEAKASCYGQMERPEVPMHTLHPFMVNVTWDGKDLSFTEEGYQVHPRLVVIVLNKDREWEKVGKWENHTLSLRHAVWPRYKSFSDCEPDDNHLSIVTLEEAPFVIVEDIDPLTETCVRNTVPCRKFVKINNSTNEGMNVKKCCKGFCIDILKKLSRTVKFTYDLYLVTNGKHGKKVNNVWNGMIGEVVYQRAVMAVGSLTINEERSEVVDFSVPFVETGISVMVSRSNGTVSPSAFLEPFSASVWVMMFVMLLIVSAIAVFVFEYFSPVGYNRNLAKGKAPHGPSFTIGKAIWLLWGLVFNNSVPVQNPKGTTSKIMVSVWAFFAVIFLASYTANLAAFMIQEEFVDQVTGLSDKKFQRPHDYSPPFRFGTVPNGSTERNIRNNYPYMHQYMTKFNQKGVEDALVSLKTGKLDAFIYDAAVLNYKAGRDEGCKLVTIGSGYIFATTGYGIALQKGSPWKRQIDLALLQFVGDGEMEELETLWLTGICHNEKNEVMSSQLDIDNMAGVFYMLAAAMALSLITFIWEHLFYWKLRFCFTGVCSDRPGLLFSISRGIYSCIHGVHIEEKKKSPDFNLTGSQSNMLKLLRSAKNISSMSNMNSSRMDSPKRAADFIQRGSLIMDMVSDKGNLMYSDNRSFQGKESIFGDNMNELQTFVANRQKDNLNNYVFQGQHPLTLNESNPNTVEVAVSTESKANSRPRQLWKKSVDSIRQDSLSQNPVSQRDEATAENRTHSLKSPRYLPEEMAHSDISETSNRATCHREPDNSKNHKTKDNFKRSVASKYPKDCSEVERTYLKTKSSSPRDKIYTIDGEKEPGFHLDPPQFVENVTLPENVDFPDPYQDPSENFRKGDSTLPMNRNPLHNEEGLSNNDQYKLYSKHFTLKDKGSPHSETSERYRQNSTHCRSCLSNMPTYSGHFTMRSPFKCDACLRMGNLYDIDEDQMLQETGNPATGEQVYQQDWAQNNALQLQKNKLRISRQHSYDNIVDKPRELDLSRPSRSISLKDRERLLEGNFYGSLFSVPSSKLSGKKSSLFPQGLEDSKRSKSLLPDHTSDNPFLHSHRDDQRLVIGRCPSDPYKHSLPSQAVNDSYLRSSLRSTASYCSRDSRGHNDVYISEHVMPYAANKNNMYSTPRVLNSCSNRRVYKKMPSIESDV
Assay: Whole-cell patch clamp of mammalian cells (Ionworks Barracuda), positive allosteric modulation, GluN1/GluN2A
Format: cell-based
Conditions: HEK293 cells; co-application with EC20 L-glutamate and 30 μM glycine; 8-point concentration-response; read-out: Avg EC50 2A
Description: The measurements were performed using Ion Works Barracuda platform following this procedure: Electrophysiological Procedures: • a) Intracellular solution (mM): 50 mM CsCl, 90 mM CsF, 2 mM MgCl2, 5 mM EGTA, 10 mM HEPES. Adjust to pH 7.2 with CsOH. • b) Extracellular solution, HB-PS (composition in mM): NaCl, 137; KCl, 1.0; CaCl2), 5; HEPES, 10; Glucose, 10; pH adjusted to 7.4 with NaOH (refrigerated until use). • c) Holding potential: −70 mV, potential during agonist/PAM application: −40 mV. […]
EC50 under 600 nM gets yes (1), anything at or over 600 nM gets no (0).

[
  {
    "compound": "C[C@H](CCC(O)C1CCC1)[C@H]1CC[C@H]2[C@@H]3CC[C@H]4C[C@](O)(C(F)(F)F)CC[C@]4(C)[C@H]3CC[C@]12C (some centres unmarked) [Compound 7]",
    "target_desc": "GlunN1/GluN2A glutamate receptors (Homo sapiens (Human), UniProt Q05586+Q12879)",
    "label_class": "yes (1)"
  },
  {
    "compound": "C[C@H](CC[C@]1(O)CCOC1)[C@H]1CC[C@H]2[C@@H]3CC[C@H]4C[C@](O)(C(F)(F)F)CC[C@]4(C)[C@H]3CC[C@]12C [Compound 2707]",
    "target_desc": "GlunN1/GluN2A glutamate receptors (Homo sapiens (Human), UniProt Q05586+Q12879)",
    "label_class": "yes (1)"
  },
  {
    "compound": "CC[C@]1(O)CC[C@H]2C(=CC[C@@H]3[C@@H]2CC[C@]2(C)[C@@H]([C@H](C)CCCC4(O)CCOCC4)CC[C@@H]32)C1 [Compound 10216]",
    "target_desc": "GlunN1/GluN2A glutamate receptors (Homo sapiens (Human), UniProt Q05586+Q12879)",
    "label_class": "no (0)"
  },
  {
    "compound": "CC[C@]1(O)CC[C@H]2C(=CC[C@@H]3[C@@H]2CC[C@]2(C)[C@@H]([C@H](C)CCCC(O)C(C)(C)C)CC[C@@H]32)C1 (some centres unmarked) [Compound 10012]",
    "target_desc": "GlunN1/GluN2A glutamate receptors (Homo sapiens (Human), UniProt Q05586+Q12879)",
    "label_class": "no (0)"
  },
  {
    "compound": "C[C@H](CC[C@@H](C)O)[C@H]1CC[C@H]2[C@@H]3CC=C4C[C@](O)(C(F)(F)F)CC[C@]4(C)[C@H]3CC[C@]12C [Compound 3266]",
    "target_desc": "GlunN1/GluN2A glutamate receptors (Homo sapiens (Human), UniProt Q05586+Q12879)",
    "label_class": "yes (1)"
  },
  {
    "compound": "CC[C@]1(O)CC[C@H]2C(=CC[C@@H]3[C@@H]2CC[C@]2(C)[C@@H]([C@H](C)CCC[C@H](O)C(C)C)CC[C@@H]32)C1 [Compound 10115]",
    "target_desc": "GlunN1/GluN2A glutamate receptors (Homo sapiens (Human), UniProt Q05586+Q12879)",
    "label_class": "yes (1)"
  },
  {
    "compound": "CC[C@]1(O)CC[C@H]2C(=CC[C@@H]3[C@@H]2CC[C@]2(C)[C@@H]([C@H](C)CCC[C@H](O)C(F)(F)F)CC[C@@H]32)C1 [Compound 9567]",
    "target_desc": "GlunN1/GluN2A glutamate receptors (Homo sapiens (Human), UniProt Q05586+Q12879)",
    "label_class": "yes (1)"
  },
  {
    "compound": "CCC1(C)CCC(O)(CC[C@@H](C)[C@H]2CC[C@H]3[C@@H]4CC[C@H]5C[C@](O)(C(F)(F)F)CC[C@]5(C)[C@H]4CC[C@]23C)CC1 (some centres unmarked) [Compound 4906]",
    "target_desc": "GlunN1/GluN2A glutamate receptors (Homo sapiens (Human), UniProt Q05586+Q12879)",
    "label_class": "no (0)"
  }
]

Ask | Determine if CC[C@]1(O)CC[C@H]2C(=CC[C@@H]3[C@@H]2CC[C@]2(C)[C@@H]([C@H](C)CCC[C@@H](O)C(F)(F)F)CC[C@@H]32)C1 [Compound 10456] shows EC50 strictly lower than 600 nM.
Reply | yes (1)

Ask | Lab note: EC50 threshold 600 nM. Does this compound come in strictly under it? CC[C@]1(O)CC[C@H]2[C@@H](CC[C@@H]3[C@@H]2CC[C@]2(C)[C@@H]([C@H](C)CCC(C)(C)O)CC[C@@H]32)C1 [Compound 679]
Reply | no (0)
